- System: HCT-15 colon
- protocolDetails: NCI-60 one-dose screen, 48 h (100 = growth as untreated, 0 = no growth, -100 = all killed)
- measurementConditions: 10 µM unless noted
The panel holds about 83,000 compounds, 20% with a hit somewhere; the sample as a whole holds those more often.
Respond with true (1) for growth values of 90% and above, false (0) for values below.

{"compound": "CCCCNP1(NCCCC)=NP(NCCCC)(NCCCC)=NP(NCCCC)(NCCCC)=NP(NCCCC)(NCCCC)=N1", "targetUnderTest": "HCT-15 colon", "cat": "true (1)"}
{"compound": "COc1ccc(N(Cc2cc(OC)c(OC)c(OC)c2)C2OC(=O)c3ccccc32)cc1 (stereo not given)", "targetUnderTest": "HCT-15 colon", "cat": "false (0)"}
{"compound": "O=c1c(/C=C/c2ccco2)nnc(SCCN2CCOCC2)n1/N=C/c1ccc([N+](=O)[O-])cc1", "targetUnderTest": "HCT-15 colon", "cat": "true (1)"}
{"compound": "CC[C@H](Nc1ncnc(N)c1C(N)=O)c1nc2cccc(NCc3ccc(C(=O)NO)cc3)c2c(=O)n1-c1ccccc1", "targetUnderTest": "HCT-15 colon", "cat": "true (1)"}
{"compound": "COc1cccc(-c2nc3sccn3c2-c2ccnc(NCCCNS(=O)(=O)c3ccccc3)c2)c1", "targetUnderTest": "HCT-15 colon", "cat": "false (0)"}
{"compound": "CCC(=O)Oc1ccc(/C(=C(\\C)c2ccccc2)c2ccc(OCCN(CC)CC)cc2)cc1", "targetUnderTest": "HCT-15 colon", "cat": "false (0)"}
{"compound": "CC[C@H](CO)Nc1nc(NCc2ccccc2)n2ncc(C(C)C)c2n1", "targetUnderTest": "HCT-15 colon", "cat": "false (0)"}
{"compound": "C(=N\\Nc1ccccn1)/c1ccccn1", "targetUnderTest": "HCT-15 colon", "cat": "false (0)"}
{"compound": "Cc1ccc(NC(=O)c2sc3nc4c(cc3c2N)C(=O)CCC4)cc1C", "targetUnderTest": "HCT-15 colon", "cat": "false (0)"}
{"compound": "Nc1c(C(=O)Nc2ccccc2Cl)sc2nc3c(cc12)CCCCCC3", "targetUnderTest": "HCT-15 colon", "cat": "false (0)"}
{"compound": "COC(=O)[C@@H]1CC[C@]2(C)[C@H](CC[C@@H]3O[C@@]32C)[C@@]1(C)CC(=O)c1ccoc1", "targetUnderTest": "HCT-15 colon", "cat": "true (1)"}
{"compound": "CCCCCCCCCCCCCCCCCCNC(=O)[C@H]1CSC(c2ccc(OC)c(F)c2)N1 (stereo not given in full)", "targetUnderTest": "HCT-15 colon", "cat": "false (0)"}
{"compound": "CN1CCN(Cc2ccc(NC(=O)c3[nH]ncc3Nc3ncnc4c3CCC4)cc2)CC1", "targetUnderTest": "HCT-15 colon", "cat": "false (0)"}
{"compound": "COc1ccc(S(=O)(=O)NCCNc2nccc(-c3c(-c4cccc([N+](=O)[O-])c4)nc4sccn34)n2)cc1", "targetUnderTest": "HCT-15 colon", "cat": "false (0)"}
{"compound": "c1ccc2sc(SCCCn3ccnc3)nc2c1", "targetUnderTest": "HCT-15 colon", "cat": "true (1)"}
{"compound": "CS(=O)(=O)c1c(Nc2ccccc2)n[nH]c1N", "targetUnderTest": "HCT-15 colon", "cat": "true (1)"}
{"compound": "Cn1c2ccccc2c2c3[nH]c(=O)[nH]c(=O)c3c3c4ccccc4n(C)c3c21", "targetUnderTest": "HCT-15 colon", "cat": "false (0)"}
